Record form. Attribute: activation. Fill in for each entry.
Assay: endothelial E-selectin upregulation by compounds – imaging, HUVEC, cherry-picked samples, dose response (AID 977605);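 note: signal is the share of imaged cells scored positive for E-selectin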
Conditions: HUVEC E-selectin immunostaining, at 19.5 µM (top of the series), percent of TNF-alpha response over vehicle
Provide only the numeric value, understood in %.

input: Which activation value belongs to C=CCN(C(=O)c1csnn1)C(C(=O)NC1CCCCC1)c1ccccc1 (centres undefined) ?
output: -0.215

input: Which activation value belongs to "C[C@H]1CN([C@@H](C)CO)C(=O)Cc2cc(NC(=O)Cc3cn(C)c4ccccc34)ccc2O[C@H]1CN(C)Cc1ccc(C(F)(F)F)cc1" ?
output: 16.2

input: Which activation value belongs to "CCNC(=O)C[C@@H]1CC[C@H]2[C@@H](COc3ccc(NC(=O)Nc4ccc(F)cc4)cc3C(=O)N2C)O1" ?
output: -0.137

input: Which activation value belongs to "O=C(NC(=S)N1CCN(c2ccc([N+](=O)[O-])cc2)CC1)c1ccccc1" ?
output: -0.117

input: Which activation value belongs to "Cc1ccc(S(=O)(=O)NNC(=O)c2cccc(O)c2)cc1" ?
output: -0.007

input: Which activation value belongs to "CC(C)(C)c1cc(CCC(=O)NCc2ccccn2)cc(C(C)(C)C)c1O" ?
output: -0.086

input: Which activation value belongs to "O=S(=O)(Nc1cccc2[nH]ncc12)c1cccs1" ?
output: -0.069

input: Which activation value belongs to "C[C@H](CO)N1C[C@H](C)[C@H](CN(C)C(=O)c2ccc3c(c2)OCO3)Oc2cc(-c3ccccc3)ccc2S1(=O)=O" ?
output: -0.242

input: Which activation value belongs to CC1CCCC(C)N1C(=O)CSc1nc2c(c(=O)n(C)c(=O)n2C)n1C (centres undefined) ?
output: -0.005

input: Which activation value belongs to "CC(C)NC(=O)N(C)C[C@@H]1Oc2ccc(NC(=O)CCCN(C)C)cc2C(=O)N([C@@H](C)CO)C[C@H]1C" ?
output: -0.112

input: Which activation value belongs to Cc1cc(C)c2sc(NNC(=O)C3COc4ccccc4O3)nc2c1 (centres undefined) ?
output: 0.141

input: Which activation value belongs to "CCC(=O)N(C)C[C@H]1Oc2ncc(Br)cc2C(=O)N([C@@H](C)CO)C[C@@H]1C" ?
output: 0.243

input: Which activation value belongs to "C[C@@H]1CN([C@H](C)CO)C(=O)c2cccc(NC(=O)CCCCCC(=O)Nc3ccccc3N)c2O[C@H]1CN(C)C" ?
output: 0.064

input: Which activation value belongs to "CC(C)NC(=O)N(C)C[C@@H]1Oc2ccc(NS(=O)(=O)c3cccs3)cc2CC(=O)N([C@H](C)CO)C[C@@H]1C" ?
output: 1.19

input: Which activation value belongs to "C[C@@H]1CN([C@@H](C)CO)C(=O)c2cc(NC(=O)Nc3ccc(F)cc3)ccc2O[C@@H]1CN(C)S(=O)(=O)c1cccs1" ?
output: -0.142

input: Which activation value belongs to "C[C@H]1CN([C@@H](C)CO)C(=O)c2cc(N(C)C)ccc2O[C@H]1CN(C)Cc1ccc(C(=O)O)cc1" ?
output: 0.082

input: Which activation value belongs to "CCCC#Cc1ccc2c(c1)O[C@@H](CN(C)C(=O)c1ccccc1)[C@@H](C)CN([C@H](C)CO)S2(=O)=O" ?
output: -0.25

input: Which activation value belongs to "CCN(CC)c1ccc(S(=O)(=O)N2CCOCC2)cc1NC(=O)CN1C(=O)NC2(CCCC2)C1=O" ?
output: 4.54

input: Which activation value belongs to "C[C@@H]1CN([C@H](C)CO)C(=O)c2cccc(NC(=O)Nc3ccccc3)c2O[C@@H]1CN(C)S(=O)(=O)c1ccccc1" ?
output: 0.268

input: Which activation value belongs to "CN(CC(=O)Nc1ccc(Br)cc1)Cc1ccccc1" ?
output: 0.013

input: Which activation value belongs to "C[C@@H]1CN([C@@H](C)CO)C(=O)Cc2cc(NC(=O)CCCCCC(=O)Nc3ccccc3N)ccc2O[C@@H]1CN(C)C(=O)Nc1ccc2c(c1)OCO2" ?
output: 0.042

input: Which activation value belongs to "C[C@H]1CN([C@@H](C)CO)C(=O)Cc2cc(NC(=O)c3ccncc3)ccc2O[C@H]1CN(C)C(=O)Nc1ccc(C(F)(F)F)cc1" ?
output: 0.212

input: Which activation value belongs to "COc1ccc(NC(=O)CCCn2c(=S)[nH]c3ccccc3c2=O)cc1" ?
output: 1.61

input: Which activation value belongs to "C[C@@H]1CN([C@H](C)CO)C(=O)Cc2cc(NS(=O)(=O)c3ccc(F)cc3)ccc2O[C@@H]1CN(C)S(=O)(=O)c1ccc(Cl)cc1" ?
output: 1.34

input: Which activation value belongs to "CN(C)C1(CNC(=O)C2CCN(S(=O)(=O)c3cc(Cl)ccc3Cl)CC2)CCCCC1" ?
output: -0.207

input: Which activation value belongs to "Cc1ccc(S(=O)(=O)Nc2ccc3c(c2)C(=O)N([C@H](C)CO)C[C@@H](C)[C@H](CN(C)Cc2ccc(-c4ccccc4)cc2)O3)cc1" ?
output: -0.157

input: Which activation value belongs to O=C1Nc2ccccc2C1Cc1ccccn1 (centres undefined) ?
output: -0.092

input: Which activation value belongs to "Cc1nc(N2CCN(c3ccccn3)CC2)c2c(C)c(C(=O)Nc3ccc(F)cc3Cl)sc2n1" ?
output: -0.158

input: Which activation value belongs to "CN(Cc1ccsc1)C(=O)CCc1nnc(CCCc2ccccc2)o1" ?
output: 1.14

input: Which activation value belongs to "C[C@@H]1CN([C@H](C)CO)C(=O)Cc2cc(NC(=O)CCCCCC(=O)Nc3ccccc3N)ccc2O[C@H]1CN(C)C(=O)Nc1ccc2c(c1)OCO2" ?
output: -0.123

input: Which activation value belongs to "Cc1ccc(S(=O)(=O)N(C)C[C@@H]2Oc3ccc(N(C)C)cc3C(=O)N([C@H](C)CO)C[C@H]2C)cc1" ?
output: 0.022

input: Which activation value belongs to Cc1ccc(CCNC(=O)C2CCC(CNc3c(N4CCC(C)CC4)c(=O)c3=O)CC2)cc1 (centres undefined) ?
output: -0.022

input: Which activation value belongs to "Cc1ccc(NCc2n[nH]c(=S)n2-c2ccccc2)cc1" ?
output: 1.12

input: Which activation value belongs to "CC(C)NC(=O)Nc1ccc2c(c1)C(=O)N([C@@H](C)CO)C[C@@H](C)[C@@H](CN(C)Cc1ccc(C(F)(F)F)cc1)O2" ?
output: 0.127

----------
Record form. Attribute: activation. Fill in for each entry.
Assay: endothelial E-selectin upregulation by compounds – imaging, HUVEC, cherry-picked samples, dose response (AID 977605);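 note: signal is the share of imaged cells scored positive for E-selectin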
Details: HUVEC E-selectin immunostaining, at 19.5 µM (top of the series)
The source made the active and inactive calls.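 How the source made its calls: active means fitted curve reaches 40% activation below the top valid tested dose, in every test run; inconclusive means test runs disagree on the call; inactive means the rest, including effects opposite to the expected direction.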

input: Which activation value belongs to NC(C(=O)O)c1cc(=O)[nH]o1 (stereo unspecified) ?
output: 0.044% (inactive)

input: Which activation value belongs to Cc1cccc(CN2CCCC(C(=O)c3ccc4c(c3)OCO4)C2)n1 (stereo unspecified) ?
output: 4.78% (inactive)

input: Which activation value belongs to "CN1CCN(c2cn[nH]c(=O)c2Cl)CC1" ?
output: -0.235% (inactive)

input: Which activation value belongs to "C=COCCn1c(C)c(C(C)=O)c2cc(O)ccc21" ?
output: 0.265% (inactive)

input: Which activation value belongs to Cc1ccc(OC(F)F)c(N2C(=O)C3C4CCC(O4)C3C2=O)c1 (stereo unspecified) ?
output: -0.065% (inactive)

input: Which activation value belongs to "Cc1ccc(-c2nc3ccccc3c(=O)n2-c2cccc(O)c2)cc1" ?
output: 0.249% (inactive)

----------
Assay: endothelial E-selectin upregulation by compounds – imaging, HUVEC, cherry-picked samples, dose response (AID 977605);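 note: signal is the share of imaged cells scored positive for E-selectin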
Conditions: HUVEC E-selectin immunostaining, at 19.5 µM (top of the series), percent of TNF-alpha response over vehicle
Record form. Attribute: activation. Fill in for each entry.
Provide only the numeric value, understood in %.

input: Which activation value belongs to "C[C@@H]1CN([C@@H](C)CO)C(=O)c2cccc(NC(=O)c3ccc(-c4nccs4)cc3)c2O[C@H]1CN(C)Cc1ccc(Oc2ccccc2)cc1" ?
output: 3.4

input: Which activation value belongs to "C[C@@H]1CN([C@@H](C)CO)C(=O)c2cc(NC(=O)Nc3ccc(C(F)(F)F)cc3)ccc2O[C@H]1CN(C)S(=O)(=O)c1ccccc1" ?
output: -0.17

input: Which activation value belongs to "CC(C)CC#Cc1cnc2c(c1)C(=O)N([C@H](C)CO)C[C@@H](C)[C@H](CN(C)C(=O)c1ccc3c(c1)OCO3)O2" ?
output: -0.021

input: Which activation value belongs to "C[C@H](CO)N1C[C@H](C)[C@H](CN(C)CC2CC2)Oc2ccc(NC(=O)Cc3ccccc3)cc2CC1=O" ?
output: 0.216

input: Which activation value belongs to "COc1ccc(S(=O)(=O)Nc2ccc3c(c2)CC(=O)N([C@H](C)CO)C[C@H](C)[C@H](CN(C)C(=O)NC2CCCCC2)O3)cc1" ?
output: -0.057

input: Which activation value belongs to "Cc1noc(C)c1S(=O)(=O)N(C)C[C@@H]1Oc2ccc(NC(=O)Nc3ccc(F)cc3)cc2CC(=O)N([C@H](C)CO)C[C@H]1C" ?
output: -0.155

input: Which activation value belongs to "C[C@@H]1CN([C@H](C)CO)C(=O)c2cccc(NC(=O)Nc3ccc(F)cc3)c2O[C@@H]1CN(C)S(=O)(=O)c1cn(C)cn1" ?
output: -0.066

input: Which activation value belongs to "CC(C)NC(=O)Nc1ccc2c(c1)C(=O)N([C@@H](C)CO)C[C@H](C)[C@H](CN(C)Cc1ccc(C(F)(F)F)cc1)O2" ?
output: 0.054

input: Which activation value belongs to "CCOc1ccc(C(=O)N2CCN(S(=O)(=O)c3cccs3)CC2)c(OCC)c1" ?
output: -0.235

input: Which activation value belongs to "C[C@H]1CN([C@@H](C)CO)C(=O)Cc2cc(NS(=O)(=O)c3ccc(F)cc3)ccc2O[C@H]1CN(C)S(=O)(=O)c1ccc(Cl)cc1" ?
output: -0.018

input: Which activation value belongs to "C[C@@H]1CN([C@@H](C)CO)S(=O)(=O)c2ccc(C#CC3CC3)cc2O[C@@H]1CN(C)Cc1cccnc1" ?
output: -0.068

input: Which activation value belongs to "C[C@@H]1CN([C@@H](C)CO)C(=O)c2cc(NC(=O)Nc3ccccc3)ccc2O[C@@H]1CN(C)C(=O)Nc1ccc(C(F)(F)F)cc1" ?
output: 0.807

input: Which activation value belongs to "CCOC(=O)[C@]12CCCC=C1N(CCC1=CCCCC1)C(=O)[C@H](CC(=O)NCCC(C)C)C2" ?
output: 7.1

input: Which activation value belongs to OC(Cc1ccccc1Br)c1ncc(-c2ccc(Cl)cc2)[nH]1 (stereo not drawn) ?
output: 1.34

input: Which activation value belongs to "CN1C(=O)c2cc(NS(C)(=O)=O)ccc2OC[C@@H]2O[C@H](CC(=O)NCc3ccc(-c4ccccc4)cc3)CC[C@@H]21" ?
output: -0.043

input: Which activation value belongs to COc1ccc(C)cc1NC(=O)C(NCC(O)c1ccccc1)c1ccccc1 (stereo not drawn) ?
output: -0.094

input: Which activation value belongs to "C[C@@H]1CN([C@H](C)CO)C(=O)Cc2cc(NS(=O)(=O)c3cccs3)ccc2O[C@@H]1CN(C)Cc1ccc(C(=O)Nc2ccccc2N)cc1" ?
output: 1.45

input: Which activation value belongs to "COc1ccc(S(=O)(=O)Nc2ccc3c(c2)CC(=O)N([C@H](C)CO)C[C@@H](C)[C@@H](CN(C)C(=O)NC2CCCCC2)O3)cc1" ?
output: 0.114

input: Which activation value belongs to "C[C@@H]1CN([C@@H](C)CO)C(=O)Cc2cc(NC(=O)C3CC3)ccc2O[C@@H]1CN(C)Cc1ccc2c(c1)OCO2" ?
output: -0.129

input: Which activation value belongs to "COc1cccc(C(=O)Nc2cc(C)c3c(=O)oc4ccccc4c3n2)c1" ?
output: 2.1

input: Which activation value belongs to "Cc1ccc(S(=O)(=O)Nc2ccc3c(c2)C(=O)N([C@H](C)CO)C[C@H](C)[C@H](CN(C)C(=O)Nc2cccc4ccccc24)OCCCC[C@@H](C)O3)cc1" ?
output: 7.64

input: Which activation value belongs to "O=S(=O)(Nc1cccc(Oc2cnccn2)c1)c1ccc(F)cc1" ?
output: 0.221

input: Which activation value belongs to "COc1ccccc1N(CC(=O)NCCSc1ccccn1)S(=O)(=O)c1ccccc1" ?
output: -0.052

input: Which activation value belongs to "C[C@H]1CN([C@@H](C)CO)C(=O)c2cc(NS(C)(=O)=O)ccc2O[C@@H]1CN(C)Cc1ccc(Cl)c(Cl)c1" ?
output: -0.025

input: Which activation value belongs to "CCn1c(CNc2ccc(Cl)cc2)nnc1SCC#N" ?
output: -0.124

input: Which activation value belongs to "CNC[C@H]1Oc2ccc(N(C)C)cc2C(=O)N([C@@H](C)CO)C[C@H]1C" ?
output: 0.27

input: Which activation value belongs to "COC(=O)c1noc(C)c1-c1ccnn1C(=O)c1ccc(C)cc1" ?
output: 0.122

input: Which activation value belongs to "Cc1cc2cc(CNC(=O)c3ccc(S(=O)(=O)N4CCCCC4)cc3)ccc2n1C" ?
output: 0.135

input: Which activation value belongs to "Cc1ccccc1NC(=O)c1cc(S(=O)(=O)Nc2cccc(C(=O)O)c2)ccc1Cl" ?
output: 0.3

input: Which activation value belongs to "C[C@H]1CN([C@@H](C)CO)C(=O)c2cccc(NC(=O)c3cnccn3)c2O[C@H]1CN(C)Cc1ccc2c(c1)OCO2" ?
output: -0.117

input: Which activation value belongs to "CC(C)OC(=O)c1cccnc1N1CCN(c2cccc(Cl)c2)CC1" ?
output: 0.039

input: Which activation value belongs to "O=S(=O)(NCc1csc(-c2cccs2)n1)c1ccc(Cl)cc1" ?
output: 0.045

input: Which activation value belongs to "CC(C)(C)S(=O)(=O)c1cnc(-c2cnccn2)nc1N" ?
output: -0.028

Reference source for all entries: PubChem BioAssay AID977605
